Listing of recorded activity, negative = inhibition by entry.
Assay: Stat Signaling Pathway (AID 446);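 note: ME-180 cervical cancer cells given 40 pM IL-6 alongside compound; SIE-controlled beta-lactamase reporter measured as 460/530 nm FRET emission ratio; % is set by controls: 0 for no effect and ±100 for the full control effect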
Conditions: ME-180 (cervical carcinoma) SIE beta-lactamase reporter, IL-6 stimulated, 5 h; at 7.69 µM (top of the series) unless noted
Inconclusive results are not listed.
API: value field is a number in %; no unit string.

Use these answered entries as a reference point.
CN(C)c1nc(-c2ccoc2)nc2ccccc12; 6.57
O=C(c1cc(C(F)(F)F)cc(C(F)(F)F)c1)N1CCC[C@@]2(CCN(Cc3nccs3)C2)C1; -3.68
COc1ccc(CNc2ncnc3ccc(-c4cccc(C#N)c4)cc23)c(OC)c1; -11.5

activity, negative = inhibition reported for this compound COc1cccc(Nc2ncc3ncc(=O)n(CCc4ccccc4)c3n2)c1 : -3.68

Sure, the documented activity, negative = inhibition for CN(C)c1ncc2nc(-c3cc(F)cc(F)c3)c(=O)n(C[C@H]3CCCO3)c2n1 is 29.3

====

Assay: Confirmatory qHTS for small molecule stabilizers of the endoplasmic reticulum resident proteome: Secreted ER Calcium Modulated Protein (SERCaMP) assay (AID 1508628); note: nearly all actives have a fitted effect of over 40% in size
Details: SERCaMP secreted luciferase ER calcium/proteostasis reporter; series mostly up to 76.3 µM
Records with an inconclusive call do not appear. Active and inactive are the calls of the source. Calls follow the shape of the dose curve; as a rule, active = well fitted inhibition curve with a large enough effect; inconclusive = small, poorly fitted or top-dose-only effect; inactive = no such curve, though single readings can be large or run the other way.
Could you please pick one outcome from this set? active, inactive

Known results for compounds:
Fc1ccc(Nc2ccnc(-c3ccccc3C(F)(F)F)n2)cc1; active
O=c1c(-c2ccc(Cl)cc2)nc2cnc(Oc3ccccc3)nc2n1C1CC1; active
COc1ccc(-n2c(=O)c(-c3ccccc3)nc3cnc(N4CCN(C)CC4)nc32)cc1; active
COc1ccc(-c2nc3cnc(N4CCNCC4)nc3n(-c3ccc(OC)cc3)c2=O)cc1; inactive
COCCn1c(=O)c(-c2ccc(Cl)cc2)nc2cnc(OC)nc21; inactive

Please turn your attention to the following entry.
Please share the test call associated with COc1ccc(-c2nc3cnc(N4CCN(C)CC4)nc3n(-c3ccc(OC)cc3)c2=O)cc1 .
inactive

====

Test system: C2A
Assay: qHTS profiling for inhibitors of Plasmodium falciparum proliferation (AID 504749); note: nearly all actives have a fitted effect of over 60% in size
Conditions: P. falciparum in erythrocytes, SYBR Green DNA, 72 h; series mostly up to 28.7 µM
Results filed as inconclusive are left out. The source made the active and inactive calls. Calls follow the shape of the dose curve; as a rule, active = well fitted inhibition curve with a large enough effect; inconclusive = small, poorly fitted or top-dose-only effect; inactive = flat fitted curve, though single readings scatter.
The reply should name one outcome from active, inactive

Solved cases (3 shown):
C[C@@]12C(=O)OC(=O)[C@]1(C)[C@H]1CC[C@@H]2O1; active
CC(C)C[C@H]1C(=O)N2CCCC2[C@]2(O)O[C@](NC(=O)[C@@H]3C=C4c5cccc6[nH]c(Br)c(c56)C[C@H]4N(C)C3)(C(C)C)C(=O)N12 (stereo partly drawn); active
CC(/C=C1\SC(=S)N(CC(=O)O)C1=O)=C\c1ccccc1; inactive

I would be grateful if you could indicate the recorded call for CC(C)(C)[C@]1(O)CCN2CC3c4ccccc4CCc4cccc(c43)[C@@H]2C1 (stereo partly drawn) .
active

Entry CN=C(N)NCCCC(N)C(=O)O (stereo not drawn) : call = ?
inactive

Dear all, I need the recorded test outcome for C=C1/C(=C\C=C2/CCC[C@]3(C)[C@@H]([C@H](C)CCCC(C)(C)O)CC[C@@H]23)C[C@@H](O)C[C@@H]1O , thank you.
inactive

What call does the record list for CN1C(=O)CCC1c1cccnc1 (stereo not drawn) ?
inactive

So what was the verdict on CO[C@H]1/C=C/O[C@@]2(C)Oc3c(C)c(O)c4c(O)c(c(/C=N\N5CCN(C6CCCC6)CC5)c(O)c4c3C2=O)NC(=O)/C(C)=C\C=C\[C@H](C)[C@H](O)[C@@H](C)[C@@H](O)[C@@H](C)[C@H](OC(C)=O)[C@@H]1C in this test?
active

====

Biological target: Mitogen-activated protein kinase 10 (Mus musculus)
Assay: JNK3 AlphaScreen Assay (AID 530);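 note: kinase came from lysate of stimulated human HepG2 cells; signal reports phosphorylation of biotinylated GST-cJun 1-79 at Ser73 with 10 µM ATP; % is set by controls: 0 for no effect and ±100 for the full control effect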
Settings: JNK3 lysate, c-Jun phosphorylation; series mostly up to 57.1 µM
Results filed as inconclusive are left out. Calls of active or inactive are those of the source. The call rests on the fitted dose curve; in most records, active means well fitted curve in either direction with a large enough effect (not every such curve was filed as active); inconclusive means small, poorly fitted or top-dose-only effect, or another doubt; inactive means flat fitted curve, though single readings scatter.
quantity: activity change, negative = inhibition

CN1CCN(c2ncc3nc(-c4cc(F)cc(F)c4)c(=O)n(C)c3n2)CC1; inactive
Cn1c(=O)c(-c2cc(F)cc(F)c2)nc2cnc(Oc3ccccc3)nc21; inactive
CCN(CC)CCn1c(-c2ccccc2)nc2c(NCCOC)nc(C)nc21; inactive
CN1CCN(c2nc(-c3ccc4c(c3)OCO4)nc3ccccc23)CC1; inactive

Form field activity change, negative = inhibition, entry CCCn1c(-c2ccc(F)cc2)nc2c(NCCN3CCCCC3)nc(C)nc21 : inactive

====

Test system: HB3
Assay: qHTS profiling for inhibitors of Plasmodium falciparum proliferation (AID 504749); note: nearly all actives have a fitted effect of over 60% in size
Conditions: P. falciparum in erythrocytes, SYBR Green DNA, 72 h; series mostly up to 28.7 µM
Results filed as inconclusive are left out. Calls of active or inactive are those of the source. Calls come from the whole dose curve; as a rule, active = well fitted inhibition curve with a large enough effect; inconclusive = small, poorly fitted or top-dose-only effect; inactive = flat fitted curve, though single readings scatter.
Hi there, use one of these labels in your reply, thanks! active, inactive

Here are 3 molecules together with their reported answers.
C=C1CCC2[C@](C)(CO)C(O)CC[C@]2(C)C1C/C=C1/C(=O)OCC1O (some centres undefined); inactive
CO[C@H]1/C=C/O[C@@]2(C)Oc3c(C)c(O)c4c(O)c(c(/C=N\N5CCN(C6CCCC6)CC5)c(O)c4c3C2=O)NC(=O)/C(C)=C\C=C\[C@H](C)[C@H](O)[C@@H](C)[C@@H](O)[C@@H](C)[C@H](OC(C)=O)[C@@H]1C; active
C[C@@H]1[C@H](O)[C@@H](C)/C=C/C=C/C=C/C=C/C=C/C=C/C=C/[C@H](O[C@@H]2O[C@H](C)[C@@H](O)[C@H](N)[C@@H]2O)C[C@@H]2O[C@](O)(C[C@@H](O)C[C@@H](O)[C@H](O)CC[C@@H](O)C[C@@H](O)CC(=O)O[C@H]1C)C[C@H](O)[C@H]2C(=O)O; inactive

Consider the record given below.
Please state the recorded outcome for this molecule: CC(/C=C1\SC(=S)N(CC(=O)O)C1=O)=C\c1ccccc1
inactive

====

Tested on: DIV30
Assay: qHTS profiling for inhibitors of Plasmodium falciparum proliferation (AID 504749); note: nearly all actives have a fitted effect of over 60% in size
Settings: P. falciparum in erythrocytes, SYBR Green DNA, 72 h; series mostly up to 28.7 µM
Inconclusive results are not listed. Active and inactive are the calls of the source. The call rests on the fitted dose curve; in most records, active means well fitted inhibition curve with a large enough effect; inconclusive means small, poorly fitted or top-dose-only effect; inactive means flat fitted curve, though single readings scatter.
Your response should consist of one outcome taken from 1 (active), 0 (inactive)

Would you please look over these solved cases?
COc1cc2c(cc1OC)C(c1ccccc1)CN(C)CC2 (centres undefined); 0
C=C1CCC2[C@](C)(CO)C(O)CC[C@]2(C)C1C/C=C1/C(=O)OCC1O (some centres undefined); 0
CC(C)C[C@H]1C(=O)N2CCCC2[C@]2(O)O[C@](NC(=O)[C@@H]3C=C4c5cccc6[nH]c(Br)c(c56)C[C@H]4N(C)C3)(C(C)C)C(=O)N12 (some centres undefined); 1

Now consider the entry below.
State the result this test recorded for CO[C@H]1/C=C/O[C@@]2(C)Oc3c(C)c(O)c4c(O)c(c(/C=N\N5CCN(C6CCCC6)CC5)c(O)c4c3C2=O)NC(=O)/C(C)=C\C=C\[C@H](C)[C@H](O)[C@@H](C)[C@@H](O)[C@@H](C)[C@H](OC(C)=O)[C@@H]1C .
1

====

Assay: Quantitative high throughput screen for delayed death inhibitors of the malarial parasite plastid, 96 hour incubation (AID 488745); note: nearly all actives have a fitted effect of over 70% in size
Conditions: Plasmodium falciparum growth; series mostly up to 28.7 µM
Results filed as inconclusive are left out. Activity calls are given as the source filed them. Calls follow the shape of the dose curve; as a rule, active = well fitted inhibition curve with a large enough effect; inconclusive = small, poorly fitted or top-dose-only effect, or effect the other way; inactive = no such curve, though single readings can be large or run the other way.
Select the correct class. Options are class 1 for active, class 0 for inactive and nothing else.

CC(=O)[C@@]1(O)CC[C@H]2C3CCC4=CC(=O)CC[C@]4(C)C3CC[C@@]21C (stereo partly drawn); class 0
NC(=O)C1=CN(C2OC(COP(=O)(O)OP(=O)(O)OC[C@H]3O[C@@H](n4cnc5c(N)ncnc54)[C@H](OP(=O)(O)O)[C@H]3O)C(O)C2O)C=CC1 (stereo partly drawn); class 0
CN(CCOc1ccc(C[C@H](Nc2ccccc2C(=O)c2ccccc2)C(=O)O)cc1)c1ccccn1; class 0
COc1ccc(CCNC[C@@H](O)c2ccc(O)cc2)cc1OC; class 0
CC(C)C1NC(=O)[C@H](CCCCN)NC(=O)[C@@H](Cc2c[nH]c3ccccc23)NC(=O)[C@H](Cc2ccc(O)cc2)NC(=O)[C@H](C)N(C)C(=O)[C@H](Cc2ccccc2)NC1=O (stereo partly drawn); class 0

Can you look up the reported call for CN(C)C1C(=O)C(C(N)=O)=C(O)[C@@]2(O)C(=O)C3=C(O)c4c(O)ccc(Cl)c4[C@@H](O)C3C[C@@H]12 (stereo partly drawn) for me?
class 1

Can you look up the reported call for NC(=S)NCCCC(N)C(=O)O (stereo not drawn) for me?
class 0

====

Experiment: qHTS for Antimalaria activity screened against the NCATS CANVASS Library (AID 1347380); note: nearly all actives have a fitted effect of over 40% in size; note: potency is the fitted concentration of half-maximal effect
Conditions: P. falciparum Dd2 growth, SYBR Green fluorescence, 72 h; series mostly up to 28.7 µM
Inconclusive results are not listed. Active and inactive are the calls of the source. Calls come from the whole dose curve; as a rule, active = well fitted cell-killing curve with a large enough effect; inconclusive = small, poorly fitted or top-dose-only effect, or effect the other way; inactive = no such curve, though single readings can be large or run the other way.
quantity: Potency

Some molecules with known Potency results, for comparison:
O=C1c2c(O)cc(O)cc2OC(c2ccc(O)cc2)C1O (configuration not stated); 0.0053 µM (active)
C/C(=C\[C@H](C)C(=O)CCCC1CC(=O)NC(=O)C1)[C@@H]1OC(=O)/C=C/CC/C=C/[C@H](O)[C@@H](O)[C@@H]1C; 5.29 µM (active)
CO[C@@H]1[C@H](O)[C@@H](C)O[C@@H](OC[C@@H]2C(C)OC(=O)/C=C/[C@H](C)C(O[C@@H]3O[C@H](C)CC4(OC(=O)O[C@@H]4C)C3O)[C@@H](C)CC(C)C(=O)/C=C/[C@H]3OC23)[C@@H]1OC (some centres not stated); 14.9 µM (active)
C=C1CC[C@@H](Br)C(C)(C)[C@]12CC=C(C)C(=O)C2; inactive
C=C[C@]1(C)CC[C@@H]([C@H](C)C(=O)/C=C/C(C)(C)O)O1; inactive
C/C=C/C(=O)C1(O)CC2CC(C(=O)O)CC(C)C2C1C1=C2C(=O)NC(=O)C2=C(CCCCC)C(C)O1 (configuration not stated); inactive

Would you kindly look at the next entry?
Record CN1CC[C@]2(c3cccc4c3N[C@H]3N(C)CC[C@@]43[C@]34CCN(C)[C@H]3Nc3ccccc34)c3ccccc3N[C@H]12 . Reported Potency: 0.0375 µM (active)
